assayNotes: Volume of distribution at steady state in cynomolgus monkey at 2 mg/kg, po or 0.5 mg/kg, iv
Type: ADME, organism-based, Macaca fascicularis
conditionsUsed: in vivo, read-out: Vdss
measuredAttribute: Vd (L/kg)
Write it as a number; the unit L/kg goes unstated.

Reported Vd, molecule CNC(=O)Nc1cc(Oc2cncc(C)c2)c(-c2ccc(OCC(C)(C)O)nc2)cn1 : ____ 2.29

====

assayNotes: Tmax in rat at 2 mg/kg, po or 0.5 mg/kg, iv
Format: ADME, organism-based
conditionsUsed: in vivo
measuredAttribute: Tmax
# answer = value followed by unit

Reported Tmax, molecule CNC(=O)Nc1cc(Oc2cncc(C)c2)c(-c2ccc(OCC(C)(C)O)nc2)cn1 : ____ 49.8 min
